FYI, the data here is from PubChem BioAssay (NCI).

# Tested on: MDA-MB-468 breast
# test: NCI-60 one-dose screen, 48 h
# recordedConditions: 10 µM unless noted
This is part of a sample that, as a whole, favours compounds with a hit. Of some 83,000 tested, about 20% had one in any assay. Active and inactive are the calls of the source. How the source made its calls: active means growth percent below 10; inactive means the rest.
A correct response names exactly one class from active, inactive

// known answers, use as guide
molecule="CCCN1C(=O)/C(=c2\\sc3n(c2=O)NC2C(N=3)N(CC)C(=O)N2CC)c2ccccc21 (centres undefined)" categorylabel=inactive
molecule=COc1cccc(/C=C/C(=O)c2cc3c(N)c(C(=O)Nc4cccc(Cl)c4C)sc3nc2C)c1 categorylabel=active
molecule="OCCNc1nc(NCCO)nc(Nc2ccc(C3=NN(c4cc(Cl)cc(Cl)c4)C(c4ccccc4)C3)cc2)n1 (centres undefined)" categorylabel=inactive
molecule=CCN(CC)N=Nc1nn(C(=O)Nc2ccc(Cc3ccccc3)cc2)c2ccc(Cl)cc12 categorylabel=inactive
molecule=NS(=O)(=O)c1ccc(NC2=C(Cl)C(=O)c3ccccc3C2=O)cc1 categorylabel=active

What classification did O=C(N=c1n(-c2ccccc2)nc2n1CCN2C1=NCCN1)c1ccc(Cl)cc1 end up with in this test?
inactive

What classification did COc1cc2cc(Oc3ccc(NC(=O)Nc4ccc(Cl)c(Cl)c4)cc3)c(C)nc2cc1OCCN1CCOCC1 end up with in this test?
inactive

What classification did CCN(CC)Cc1cc(Nc2ccnc3cc(Cl)ccc23)cc(-c2ccc(Cl)cc2)c1O end up with in this test?
active

What classification did CCN(CC)c1ccc(C(=N)c2ccc(N(CC)CC)cc2)cc1 end up with in this test?
active
